Cited source for all entries: patent US9115101B2

TARGET OR SYSTEM: RORc ligand binding domain (Homo sapiens)
Construct: host or cells: E. coli
Sequence (P51449 269-508 limits assumed, species assumed): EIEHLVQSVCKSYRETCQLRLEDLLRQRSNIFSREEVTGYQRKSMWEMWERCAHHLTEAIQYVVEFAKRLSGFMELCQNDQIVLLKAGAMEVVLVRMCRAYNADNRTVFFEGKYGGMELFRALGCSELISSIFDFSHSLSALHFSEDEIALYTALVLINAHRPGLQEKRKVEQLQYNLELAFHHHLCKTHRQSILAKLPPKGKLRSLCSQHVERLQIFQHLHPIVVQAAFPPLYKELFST
PROTOCOL TEXT: In Vitro RORc Ligand Binding Assay (25-[3H]hydroxycholesterol radioligand filtration)
CONDITION NOTES: In Vitro RORc Ligand Binding Assay; Table 4; read-out: RORc IC50
QUANTITY KIND: IC50 (nM)

1 = CC(=O)N1C[C@@H]2CN(c3ccc(CN4[C@@H](C)CCC(c5ccccc5)S4(=O)=O)c(F)c3)C[C@@H]2C1 (stereo partly drawn)
2 = CC1=C(N2CCN(c3ccc(CN4[C@@H](C)CCC(c5ccccc5)S4(=O)=O)c(F)c3)CC2)CCC1=O (stereo partly drawn)
3 = C[C@H]1CCC(c2ccccc2)S(=O)(=O)N1Cc1ccc(N2CCC(CS(C)(=O)=O)CC2)cc1F (single isomer, unassigned) [Example 105]
List items by IC50 in falling order. Provide the labels, sequenced as the question asks. 1, 2, 3
